assay_remarks: Clearance in Sprague-Dawley rat at 1 mg/kg, iv administered as bolus dose by LC-MS/MS analysis
Assay type: ADME, organism-based
run_parameters: in vivo
quantity_name: clearance (mL/min/kg)

Summary for this compound, COc1cccc(CNC(=O)c2cc(-c3nnn(C[C@H]4CC[C@H](CO)CC4)n3)cc(C)n2)c1 : clearance is 76.6

Briefly, clearance measured for COc1cccc(CNC(=O)c2cc(-c3nnn(C[C@H]4CO[C@H](CO)CO4)n3)nc(C)n2)c1 (racemic) : 10.6

Kindly note the recorded clearance for COc1cccc(CNC(=O)c2cc(-c3nnn(CC4COCCO4)n3)cc(C)n2)c1 (racemic) , which is 25.8

// recorded clearance for COc1cc(CNC(=O)c2cc(-c3nnn(C[C@H]4CO[C@H](CO)CO4)n3)nc(C)n2)ccc1F : 18.2

Notebook: COc1cc(CNC(=O)c2cc(-c3nnn(C[C@@H]4CO[C@@H](CO)CO4)n3)nc(C)n2)ccc1F , clearance read as 9.8

Given item COc1cccc(CNC(=O)c2cc(-c3nnn(CC4CCCCO4)n3)cc(C)n2)c1 (single isomer, unassigned; (-)) , the value recorded as its clearance is 54.5

I = COc1cccc(CNC(=O)c2cc(-c3nnn(C[C@H]4CO[C@H](CO)CO4)n3)cc(C)n2)c1 (racemic)
II = COc1cccc(CNC(=O)c2cc(-c3nnn(CC4CCCCC4)n3)cc(C)n2)c1
Kindly compare I with II and tell me which has the lower clearance figure. When you have decided, please share the label of that item.
I

----------
assay_remarks: Intrinsic clearance in human liver microsomes measured over 40 mins by HPLC/MS analysis
Assay type: ADME
run_parameters: read-out: CLH
quantity_name: microsomal CLint (µL/min/mg)

Entry COc1cccc(CNC(=O)c2cc(-c3nnn(CC4CCCCO4)n3)cc(C)n2)c1 (single isomer, unassigned; (-)) — recorded microsomal CLint = 53.1

I = COc1cccc(CNC(=O)c2cc(-c3nnn(CC4CCCCC4)n3)cc(C)n2)c1
II = COc1cccc(CNC(=O)c2cc(-c3nnn(C[C@H]4CC[C@H](NC(C)=O)CC4)n3)cc(C)n2)c1
So which one has the bigger microsomal CLint here, I or II ? When you have decided, please share the label of that item.
I
(I: 41.7 µL/min/mg, II: 24.7 µL/min/mg)

----------
assay_remarks: Plasma protein binding in human
Assay type: ADME, cell-free
run_parameters: read-out: PPB (converted)
quantity_name: fraction unbound

1 = COc1cccc(CNC(=O)c2cc(-c3nnn(C[C@H]4CO[C@H](CO)CO4)n3)cc(C)n2)c1 (racemic)
2 = COc1cccc(CNC(=O)c2cc(-c3nnn(C[C@H]4CO[C@H](CO)CO4)n3)nc(C)n2)c1 (racemic)
Which has the higher fraction unbound, 1 or 2 ? Respond using the label that marks the chosen record.
2
(2: 0.31, 1: 0.14)

----------
assay_remarks: Clearance in beagle dog at 1 mg/kg, po and iv
Format: ADME, organism-based, Canis lupus familiaris
run_parameters: in vivo
quantity_name: clearance (mL/min/kg)
Dear colleague, please return just the value in mL/min/kg, with no unit written.

Reported clearance for COc1cc(CNC(=O)c2cc(-c3nnn(C[C@H]4CO[C@H](CO)CO4)n3)nc(C)n2)ccc1F was 8.2

----------
assay_remarks: physchem
run_parameters: buffer, pH 7.4
quantity_name: logD

Here are 2 compounds together with their reported answers.
The recorded logD for entry COc1cccc(CNC(=O)c2cc(-c3nnn(C[C@H]4CC[C@H](CO)CC4)n3)cc(C)n2)c1 equals 3.57

Kindly note the recorded logD for COc1cccc(CNC(=O)c2cc(-c3nnn(CC4CCCCC4)n3)cc(C)n2)c1 , which is 4.37

1 = COc1cccc(CNC(=O)c2cc(-c3nnn(CC4CCCCO4)n3)cc(C)n2)c1 (single isomer, unassigned; (-))
2 = COc1cccc(CNC(=O)c2cc(-c3nnn(C[C@H]4CO[C@H](CO)CO4)n3)cc(C)n2)c1 (racemic)
Please state the entry with greater logD among 1 and 2 . // return label of chosen record
1
(1: 3.22, 2: 2.04)
